assay: Half life in human liver S9 microsomes at 1 uM in presence of NADPH by LC-MS/MS analysis
Here, each record is paired with measured half-life at 1 µM data.
Please respond with the number in h and leave the unit unwritten.

As a guide, the following entries are already answered.
O=C(Cn1cnc([N+](=O)[O-])n1)Nc1ccc(N2CCCCC2)cc1 | 2.68
O=C(CCn1cnc([N+](=O)[O-])n1)Nc1cccc(OCc2ccccc2)c1 | 2.07

Now take the following molecule into account.
Give its half-life at 1 µM value. Item: `O=C(Cn1cnc([N+](=O)[O-])n1)N1CCN(Cc2ccc(Cl)c(Cl)c2)CC1`
1.2

---

test system: Mycobacterium tuberculosis; assay: Antitubercular activity against Mycobacterium tuberculosis H37Rv ATCC 27294 after 10 days under low oxygen condition followed by incubation under aerobic condition for 28 hrs by LORA; type: functional, organism-based
Here, each record is paired with measured MIC data.
Please respond with the number in µM and leave the unit unwritten.

As a guide, the following entries are already answered.
O=C(CCn1cnc([N+](=O)[O-])n1)Nc1ccc(Oc2ccccc2)cc1 | 81
O=C(Cn1cnc([N+](=O)[O-])n1)Nc1ccc(N2CCCCC2)cc1 | 120
O=C(CCn1cnc([N+](=O)[O-])n1)Nc1ccc(Oc2ccc(Cl)cc2)cc1 | 30

Give its MIC value. Item: `O=C(Cn1cnc([N+](=O)[O-])n1)N1CCN(Cc2ccc(C(F)(F)F)cc2)CC1`
170

Give its MIC value. Item: `O=C(Cn1cnc([N+](=O)[O-])n1)N1CCN(Cc2ccc(Cl)c(Cl)c2)CC1`
140
